Kindly supply the reported viability, T/C values for the records listed here.
Test system: 379773-124-R-J2-PDC spheroid viability;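 also: spheroids exposed to drugs for seven days before readout; percent viability relative to DMSO vehicle control taken as 100%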
protocol: Anticancer human tumor 379773-124-R-J2-PDC patient-derived endometrial carcinoma cell line growth inhibition [POLQ]
condition-set: second compound 0.1 µM; first compound 3.16 µM; stronger effect = lower value; spheroids with HUVEC and MSC
One number for each entry, in %.

Record excerpt, results attached:
COc1ccc([C@@H](O)c2cc(-c3ncnc4cc(N5CCOCC5)ccc34)c(F)cc2Cl)nn1 + Cc1cccc(N(C)C(=O)C2C(O)CCN2c2nc(C)cc(C(F)(F)F)c2C#N)c1 = 64.1
CNCc1ccc(-c2[nH]c3cc(F)cc4c3c2CCNC4=O)cc1 + Cc1cccc(N(C)C(=O)C2C(O)CCN2c2nc(C)cc(C(F)(F)F)c2C#N)c1 = 80.4
O=C(Nc1ccc(O)c(NS(=O)(=O)c2ccc(F)cc2)c1)c1ccc(-c2ccccc2)cc1 + Nc1ccc(C#CCN(C(=O)Cc2ncc(C(F)(F)F)cc2C(F)(F)F)c2ccc(F)cc2)nn1 = 89
COc1cc2cc(C(=O)CCC(=O)O)sc2cc1OC + COC1C(OC(N)=O)C(O)C(Oc2ccc3c(O)c(NC(=O)c4ccc(O)c(CC=C(C)C)c4)c(=O)oc3c2C)OC1(C)C = 85.5

Alright, here's another compound for you.
For 379773-124-R-J2-PDC spheroid viability, give the measured viability, T/C of the entry CCc1cc2c(N3CCc4c(cc(Cn5ccnc5)cc4-c4cn(C)nc4C(F)(F)F)C3=O)cc(C)nc2c(OC)n1 + Nc1ccc(C#CCN(C(=O)Cc2ncc(C(F)(F)F)cc2C(F)(F)F)c2ccc(F)cc2)nn1
55.7
